MEASUREMENT_DESCRIPTION: Pharmacokinetic parameter expressed as plasma clearance in rat
Format: ADME, organism-based
MEASUREMENT_CONTEXT: read-out: Clp
I'd appreciate it if you could supply clearance values for the items below.
Numeric only. Scale: mL/min/kg

Per the record, O=C(O)[C@@H](CC1CCC1)N1C[C@H](CN2CCC(N(CC3CC3)c3ncccn3)CC2)[C@@H](c2cccc(F)c2)C1 has clearance of 28

Value of clearance reported for the molecule CCCN(c1cccnc1)C1CCN(C[C@H]2CN([C@@H](C(=O)O)C3CCCCC3)C[C@@H]2c2ccccc2)CC1 is 106

Documented clearance of CCCN(c1ncc(C(F)(F)F)cn1)C1CCN(C[C@H]2CN([C@H](CC3CCC3)C(=O)O)C[C@@H]2c2cccc(F)c2)CC1 : 9
